These entries and their values trace back to patent US20110059095A1.

- target-system: T1, Peptide A (human PAR-2), C-terminal biotinylated (Human, C-terminal biotin via G4S linker)
- T1 construct: also called Peptide A C-Term
- measurement-protocol: peptide ELISA titration
Reported values of EC50 for individual entries
Record the value in nM, omitting the unit from your answer.

Record excerpt, results attached:
# binder, EC50 [nM]
measured = [
    ("H4H588N (antibody, human IgG4, V domains shown, also called H2M588N variable regions) VH: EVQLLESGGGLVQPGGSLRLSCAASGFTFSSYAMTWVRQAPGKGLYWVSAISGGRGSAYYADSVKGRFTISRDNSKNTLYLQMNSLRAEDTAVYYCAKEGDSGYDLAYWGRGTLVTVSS VL: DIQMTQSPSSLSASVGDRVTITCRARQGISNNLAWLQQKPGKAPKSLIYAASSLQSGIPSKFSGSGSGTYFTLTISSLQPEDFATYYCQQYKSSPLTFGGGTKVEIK", 0.016),
    ("H4H578P (antibody, human IgG4, V domains shown, also called H1H578P variable regions) VH: QVQLVESGGGVVQPGMSLRLSCAASGFTFRRYGMHWVRQAPGKGLEWVAVIWYDGSNKYYVDSVKGRFTISRDNSKNTLYLQMNSLRAEDTAVYYCASEITVGDWFDPWGQGTLVTVSS VL: AIQMTQSPSSLSASVGDRVTITCRASQGIRNDLGWYQQKPGKAPKLLIYAASSLHSGVPSRFSGSGSGTDFTLTISSLQPEDFATYYCLQDFNYPLTFGGGTKVEIK", 0.04),
]

Proceed to the following item.
Problem: Look up EC50 for this binder: H4H584P (antibody, human IgG4, V domains shown, also called H1H584P variable regions) VH: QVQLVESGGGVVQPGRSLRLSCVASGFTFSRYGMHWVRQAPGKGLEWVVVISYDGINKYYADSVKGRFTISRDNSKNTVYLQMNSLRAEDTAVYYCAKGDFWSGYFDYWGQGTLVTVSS VL: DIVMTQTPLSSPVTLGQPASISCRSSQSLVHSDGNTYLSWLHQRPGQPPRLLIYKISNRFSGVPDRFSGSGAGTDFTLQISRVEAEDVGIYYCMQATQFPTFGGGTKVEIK
Result: 0.015
